The following molecules are listed with their measured concentration at 20 min values.
- PROTOCOL NOTES: Drug concentration in C57BL/6J mouse brain at 1 mg/kg, sc measured after 20 mins by LC-MS/MS analysis
- Format: ADME, organism-based
- MEASUREMENT CONDITIONS: read-out: Ct
Field note: include the unit after the figure.

CC[C@@H]1CN2CC[C@@]3(O)C(=Nc4cccc(OC)c43)[C@@H]2C[C@@H]1/C(=C\OC)C(=O)OC
450 nM

Could you now consider this next molecule?
query: What does the record list as concentration at 20 min for "CO/C=C(/C(=O)OC)[C@@H]1CCN2CC[C@]3(Nc4cccc(OC)c4C3=O)[C@@H]2C1" ?
result: 70 nM

====

- TARGET UNDER TEST: Kappa-type opioid receptor (Mus musculus)
- Sequence (P33534 whole entry): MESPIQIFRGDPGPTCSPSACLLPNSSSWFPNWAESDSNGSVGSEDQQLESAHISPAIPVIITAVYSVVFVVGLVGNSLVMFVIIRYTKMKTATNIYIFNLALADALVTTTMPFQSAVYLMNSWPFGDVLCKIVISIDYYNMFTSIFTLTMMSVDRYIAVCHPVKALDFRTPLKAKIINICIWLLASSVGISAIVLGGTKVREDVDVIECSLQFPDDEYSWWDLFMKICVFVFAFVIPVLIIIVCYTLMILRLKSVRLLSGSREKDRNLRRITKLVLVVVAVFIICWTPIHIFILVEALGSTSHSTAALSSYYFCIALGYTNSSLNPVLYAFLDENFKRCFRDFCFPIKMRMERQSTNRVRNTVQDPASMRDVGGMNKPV
pKi: −log10 of the molar value.
Given measured pKi, output criterion met if it is greater than or equal to 6 and criterion not met if not.

CC[C@@H]1C[N+]2=C(C[C@@H]1/C(=C\OC)C(=O)OC)c1[nH]c3cccc(OC)c3c1CC2
criterion met

Pending compound:
query: Evaluate CC[C@@H]1C[N+]2([O-])CCc3c([nH]c4cccc(OC)c34)[C@@H]2C[C@@H]1/C(=C\OC)C(=O)OC (stereo not given in full) : pKi at minimum 6?
result: criterion not met

====

As an illustration, consider measured Ki for compounds on Kappa-type opioid receptor (Mus musculus).
The answer is to be given in nM; state only the numeric part.

Worked examples, 2 compounds total:
CC[C@@H]1CN2CCc3c([nH]c4cccc(O)c34)[C@@H]2C[C@@H]1/C(=C\OC)C(=O)OC
1180
CC[C@@H]1CN2CCc3c([nH]c4cccc(O[C@@H]5O[C@H](C(=O)O)[C@@H](O)[C@H](O)[C@H]5O)c34)[C@@H]2C[C@@H]1/C(=C\OC)C(=O)OC
1270

Could you now consider this next compound?
query: Please tell me: Ki of "C=C[C@H]1CN2CCc3c([nH]c4cccc(OC)c34)[C@@H]2C[C@@H]1/C(=C\OC)C(=O)OC" , system Kappa-type opioid receptor (Mus musculus)?
result: 883
